These data points were gathered from PubChem BioAssay.

- Tgt: Epidermal growth factor receptor (Homo sapiens) (UniProt P00533)
- Sequence (P00533 whole entry, looked up): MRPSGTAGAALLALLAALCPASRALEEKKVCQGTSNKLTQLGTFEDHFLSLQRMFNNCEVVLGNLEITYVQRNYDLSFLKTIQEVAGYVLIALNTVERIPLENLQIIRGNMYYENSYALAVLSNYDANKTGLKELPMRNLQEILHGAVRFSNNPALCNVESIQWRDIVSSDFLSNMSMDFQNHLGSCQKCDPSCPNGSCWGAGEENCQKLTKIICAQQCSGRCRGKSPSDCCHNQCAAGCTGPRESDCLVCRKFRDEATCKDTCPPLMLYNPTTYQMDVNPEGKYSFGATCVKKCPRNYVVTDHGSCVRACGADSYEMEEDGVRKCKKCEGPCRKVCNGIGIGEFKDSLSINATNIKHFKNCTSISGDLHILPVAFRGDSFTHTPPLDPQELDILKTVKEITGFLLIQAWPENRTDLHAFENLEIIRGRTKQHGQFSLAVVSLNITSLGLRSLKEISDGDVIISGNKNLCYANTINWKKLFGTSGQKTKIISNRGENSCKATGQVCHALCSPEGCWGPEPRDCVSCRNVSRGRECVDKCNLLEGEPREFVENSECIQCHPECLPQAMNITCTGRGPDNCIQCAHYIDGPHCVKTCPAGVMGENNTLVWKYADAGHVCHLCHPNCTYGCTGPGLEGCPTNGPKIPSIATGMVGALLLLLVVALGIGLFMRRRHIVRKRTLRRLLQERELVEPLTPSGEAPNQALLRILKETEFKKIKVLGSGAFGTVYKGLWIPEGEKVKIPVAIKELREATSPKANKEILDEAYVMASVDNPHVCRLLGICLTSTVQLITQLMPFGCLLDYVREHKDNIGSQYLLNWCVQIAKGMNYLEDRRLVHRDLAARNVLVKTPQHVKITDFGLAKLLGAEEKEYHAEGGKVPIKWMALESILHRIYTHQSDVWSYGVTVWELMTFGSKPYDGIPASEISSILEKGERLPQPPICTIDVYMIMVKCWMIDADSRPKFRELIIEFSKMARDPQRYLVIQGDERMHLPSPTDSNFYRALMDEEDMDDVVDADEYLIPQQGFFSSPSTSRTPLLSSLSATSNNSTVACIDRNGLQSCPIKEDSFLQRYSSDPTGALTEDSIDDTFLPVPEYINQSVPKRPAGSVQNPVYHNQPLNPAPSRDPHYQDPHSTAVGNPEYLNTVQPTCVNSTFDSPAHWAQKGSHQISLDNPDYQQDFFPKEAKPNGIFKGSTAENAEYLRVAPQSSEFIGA
- Measurement notes: compounds binding epidermal growth factor receptor – biochemical, small-molecule microarray, 635 nm fluorescence, primary screen (AID 1104);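 further: score merges 667 nm emission intensity with spot signal to noise over triplicate slides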
- Condition summary: EGFR binding, higher = more signal
I'd be grateful if you could share measured composite z-score for these entries.
# respond with the number and nothing more

So what composite z-score did C=CCNC(=O)[C@@H]1[C@H]2C(=O)O[C@H](c3ccccc3)[C@H](c3ccccc3)N2[C@H](c2ccc(O)cc2)[C@@]12C(=O)N(C(=O)OCCOC)c1ccc(C#CC3=CCCCC3)cc12 get with Epidermal growth factor receptor (Homo sapiens) (UniProt P00533)?
0.714

For O=C1CS(=O)(=O)C(c2cccc([N+](=O)[O-])c2)N1c1ccccc1 (stereo not given) then?
0.591

For CCOC(=O)C[C@H]1[C@H](OC(=O)Cc2ccc3c(c2)OCO3)[C@@H](NC(=O)C2CCCCC2)c2cc(OCCCO)ccc2N1C(=O)c1ccccc1 then?
0.073

For Cc1ccc(NN2C(C(O)c3c(F)cccc3Cl)C=CC3C(=O)N(C4CCCCC4)C(=O)C32)cc1 (stereo not given) then?
-0.184

For COc1ccc(CCNC(=O)[C@@]2(c3ccc([N+](=O)[O-])cc3)CC(=O)N(C3CCCCC3)[C@@H]2c2ccc(CO)cc2)cc1 then?
-0.155

For NC(=O)[C@H]1[C@@H]2C(=O)O[C@@H](c3ccccc3)[C@@H](c3ccccc3)N2[C@@H](c2ccc(OCCO)cc2)[C@]12C(=O)Nc1ccc(C#CCCO)cc12 then?
0.189

For CCCCN1CC=CC23O[C@@H]4/C=C\CCC(C)OC(=O)C4[C@H]2C(=O)N(CCCO)[C@@H]3C1=O (stereo not given in full) then?
-0.983

For CC(C)[Si]1(C(C)C)OCc2cc(C3CC3)nc(-c3ccc(Oc4ccccc4)cc3)c21 then?
-0.233

For CCCCCCCCCC(O)C1C=CC2C(=O)N(c3ccccc3)C(=O)C2N1Nc1cc(OC)c(OC)c(OC)c1 (stereo not given) then?
-0.381

For CO[C@H]1O[C@H](CO)[C@@H](OC(=O)Nc2ccc3c(c2)OCO3)[C@H](OC(=O)Nc2ccc3c(c2)OCO3)[C@@H]1OC(=O)Nc1ccc2c(c1)OCO2 then?
0.273

For C=CC[C@H](OC(=O)Nc1ccc(SC)cc1)c1ccc(O)c2ccccc12 then?
0.961

For CCOC(=O)[C@@H]1CCCCN1C(=O)C(=O)OC then?
0.243

For C=CCN1C(=O)[C@]2(CCC(=O)OC(C)(C)C)N=C(c3ccc(OCCCO)cc3)O[C@@H]2c2ccccc21 then?
0.348

For CC(C)C(CO)N1C(=O)[C@@H]2C3C(=O)OCCC/C=C\[C@H]3OC23C=CCN(Cn2nnc4ccccc42)C(=O)[C@@H]13 (stereo not given in full) then?
-0.636

For COC(=O)c1c(CC[C@@H](CO)NC(=O)N[C@@H](C)Cn2cc(-c3ccccn3)nn2)oc(C(C)=O)c1C(=O)OC then?
-0.344

For C=CCNC(=O)[C@@H]1[C@H]2C(=O)O[C@H](c3ccccc3)[C@H](c3ccccc3)N2[C@H](c2ccccc2OCCO)[C@@]12C(=O)Nc1ccc(C#CCC(C(=O)OC)C(=O)OC)cc12 then?
-0.114

For NCCCCCCNC(=O)[C@@H]1C[C@@H]2C(=O)N[C@@H](CCCCN)C(=O)N2[C@@H]1c1ccc(O)cc1 then?
0.456

For COC(=O)[C@@H]1N=C(c2ccc(OCCCO)cc2)O[C@@H]1C then?
-0.55

For COc1ccc([Si](C)(C)[C@@H]2[C@@H](CC(=O)N3Cc4ccccc4C[C@H]3CO)O[C@]3(C(=O)N(Cc4ccc(N5C(=O)c6cccc7cccc5c67)cc4)c4ccccc43)[C@H]2C)cc1 then?
1.2

For CC(C)(C)OC(=O)CC[C@@]1(C(=O)NCC(O)CO)N=C(c2ccc(OCCCO)cc2)O[C@@H]1c1ccccc1CN=[N+]=[N-] (stereo not given in full) then?
-0.0699

For CN(C)CCCCCCNC(=O)[C@@H]1C[C@@H]2C(=O)N3CCC[C@H]3C(=O)N2[C@@H]1c1cccc(OCCO)c1 then?
1.11

For CCCC[C@@H]1C[C@H]1[C@@H](NC(=O)c1cccs1)c1ccccc1C(F)(F)F then?
-0.531

For CC(C)C[C@@H]1NC(=O)[C@@H]2C[C@H](C(=O)NCCCCCCN)[C@H](c3cccc(OCCO)c3)N2C1=O then?
0.0515

For Cc1ccc(S[C@]2(C(=O)NCCN3CCOCC3)CC(=O)N(Cc3ccccc3Cl)[C@@H]2c2ccc(CO)cc2I)cc1 then?
-1.29

For C=CC[C@]1(C(=O)N2CCCCC2)N=C(c2ccc(OCCCO)cc2)O[C@H]1c1ccccc1CN=[N+]=[N-] then?
0.128

For COc1ccc([C@H]2OC[C@@H]3C[C@H](Cc4ccccc4)C(=O)N32)cc1 then?
0.212

For O=C1O[C@H](c2ccccc2)[C@H](c2ccccc2)N2[C@H]1[C@@H](C(=O)O)[C@]1(C(=O)Nc3ccc(C#CCCO)cc31)[C@H]2c1ccccc1OCCO then?
-0.329

For CC(C)=C1C(=O)C(c2ccccc2)=C2CN3C(=O)N(CCc4ccccc4)C(=O)[C@]3(Cc3ccc(C(F)(F)F)cc3)[C@H]21 then?
-1.22

For COc1cc2c(cc1O)C=[N+](Cc1sc3ccccc3c1Cl)CC2 then?
0.454

For COc1cccc(C)c1NC(=O)O[C@H]1[C@H](OC(=O)Nc2ccccc2-c2ccccc2)[C@H](OC(=O)Nc2ccccc2-c2ccccc2)[C@@H](OC)O[C@@H]1CO then?
0.649

----------
- Measurement notes: probe aXIP binding to arrayed compounds – biochemical, NeuroSMM set, 635/667 nm fluorescence, primary screen (AID 1119);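 further: probe is the protein aXip251-270 applied at 1 µg/mL to compound-printed slides; binding of probe to printed compounds measured as 667 nm fluorescence plus signal to noise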
- Condition summary: small-molecule microarray, higher = more signal, called active from +8 up or from −8 down
Returns one of fulfilled or not fulfilled; fulfilled when composite Z-score is >= 0.7.

Is composite Z-score for CCOC(=O)C1=CC[C@@H](c2ccccc2)N(S(=O)(=O)c2ccc(C)cc2)[C@H]1c1ccccc1 at or above 0.7?
not fulfilled

For COC(=O)[C@@]1(Cc2ccc(F)cc2)[C@H]2c3cc(C(=O)N4CCCC4)n(CCc4c[nH]c5ccccc45)c3C[C@H]2CN1C(=O)c1ccccc1 then?
not fulfilled

For N[C@@H](Cc1ccccc1)C(=O)NCc1cn(Cc2ccccc2)nn1 then?
fulfilled

For CCCCC=C[C@@H](NC(=O)OCc1ccccc1Cl)c1ccccc1 then?
not fulfilled

----------
- Measurement notes: changes in parasitized red cell lysis, either direction – P. falciparum Indochina, OD700, 3 h, PSAC antagonist project, primary screen (AID 1156)
- Condition summary: P. falciparum-infected erythrocytes, osmotic lysis, higher = more signal, called active from +8 up or from −8 down
Returns one of TRUE or FALSE; TRUE when z-score is >= 0.1.

Is z-score for CC(=O)NCCCC[C@@H]1NC(=O)[C@@H]2C[C@H](C(=O)NCCCCCN)[C@H](c3ccc(O)cc3)N2C1=O at or above 0.1?
TRUE

For COc1ccc([Si](C)(C)[C@@H]2[C@@H](CCO)O[C@]3(C(=O)N(Cc4ccccc4)c4ccc(N5CCOC5=O)cc43)[C@H]2C)cc1 then?
TRUE

For CC1=C2[C@@H](CCc3ccccc3)OB(O)C[C@@H]2[C@@H]2C(=O)N(Cc3ccccc3)C(=O)[C@@H]2C1 then?
FALSE

For CN(C)C(=O)[C@@]1(Cc2ccccc2CN=[N+]=[N-])N=C(c2ccc(OCCCO)cc2)O[C@H]1c1ccccc1N=[N+]=[N-] then?
TRUE

For COCCOC(=O)N1C(=O)[C@@]2(c3ccccc31)[C@H](c1ccc(O)cc1)N1[C@H](c3ccccc3)[C@H](c3ccccc3)OC(=O)[C@H]1[C@@H]2C(=O)N1CCN(c2ncccn2)CC1 then?
TRUE

For CCOC(=O)C[C@H]1[C@H](OC(=O)c2cc3ccccc3oc2=O)[C@@H](NC(=O)c2ccccc2)c2cc(OCCCO)ccc2N1C(=O)c1ccccc1 then?
FALSE

For C#CCN(Cc1ccccc1Br)[C@H](/C=C/c1ccccc1)[C@@H](O)Cc1ccccc1 then?
FALSE

----------
I'd be grateful if you could share measured z-score for these entries.
- Measurement notes: budding yeast growth modifiers under rapamycin – strain BY4716, OD600, 96 h, primary screen (AID 1091); further: test concentration not given here
- Condition summary: S. cerevisiae BY4716 + rapamycin, higher = more signal, called active from +8 up or from −8 down
# respond with the number and nothing more

Please report the recorded z-score for COCCCNC(=O)[C@@]1(CCC(=O)OC(C)(C)C)N=C(c2ccc(OCCCO)cc2)O[C@H]1c1ccccc1N=[N+]=[N-] .
-0.875

For CO[C@H]1O[C@H](CO)[C@@H](OC(=O)Nc2ccccc2)[C@H](OC(=O)c2cc3ccccc3[nH]2)[C@H]1OC(=O)c1cc2ccccc2[nH]1 then?
0.216

For COCCCNC(=O)[C@@H]1c2ccccc2C(=O)N(C(C)C)[C@H]1c1ccc(CO)cc1 then?
0.395

For CCOC(=O)C1=C[C@@H](c2ccccc2)N(S(=O)(=O)c2ccc(C)cc2)[C@H]1c1ccc(OC)cc1 then?
0.698

For CCOC(=O)C[C@H]1[C@H](OC(=O)c2ccc(C(=O)c3ccccc3)cc2)[C@@H](NC(=O)C2CCCCC2)c2cc(OCCCO)ccc2N1C(=O)c1ccc2ccccc2n1 then?
0.276

For CC[C@@H]1O[Si](C(C)C)(C(C)C)c2c1cc(-c1cc(C)c(OC)c(C)c1)nc2-c1ccc(Oc2ccccc2)cc1 then?
-0.798

For COCCOC(=O)N1C(=O)[C@@]2(c3cc(C#CCCO)ccc31)[C@H](c1ccc(OCCO)cc1)N1[C@H](c3ccccc3)[C@H](c3ccccc3)OC(=O)[C@H]1[C@@H]2C(=O)Nc1nc2ccccc2s1 then?
2.48
